The following binders are shown together with reported pKI values.
Biological target: T1, RAMP1-CTR ECD fusion protein (hRAMP1.24–111-(GSA)3-hCTR.34–141-H6) (human, UniProt O60894 24-111; P30988 34-141)
T1 construct: human receptor activity-modifying protein 1 (RAMP1), extracellular domain, residues 24-111; linker, printed as (GSA)3; human calcitonin receptor (CTR), extracellular domain, residues 34-141; Secreted from a pHLsec-based vector; also called AMY receptor 1 ECD; RAMP1 ECD-CTR ECD fusion; source: HEK293T, transiently transfected, secreted to cell culture media, purified (IMAC, SEC)
T1 chain: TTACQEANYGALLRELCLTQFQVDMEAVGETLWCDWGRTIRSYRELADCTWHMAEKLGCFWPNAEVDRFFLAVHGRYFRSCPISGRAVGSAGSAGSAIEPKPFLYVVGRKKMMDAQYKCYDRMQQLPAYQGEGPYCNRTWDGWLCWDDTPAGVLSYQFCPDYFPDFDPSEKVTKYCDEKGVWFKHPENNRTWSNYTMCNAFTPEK
Experiment: fluorescence polarisation; competition binding, full curves: FITC-AC413(6–25) Y25P probe 10 nM, RAMP1-CTR ECD 77 nM, RAMP2-CTR ECD 67 nM or RAMP3-CTR ECD 252 nM, competitive peptide at multiple concentrations, all in solution; KI from non-linear regression of anisotropy
Conditions: both partners purified
Where no end group is shown, it is not given here. [ ]: non-standard residue; d: D form. Hyp = O=C(O)[C@@H]1C[C@@H](O)CN1

| binder | measured |
| --- | --- |
| YPRTNTGSGTP-NH2 (salmon calcitonin (sCT), residues 22-32; numbers count on: the mature 32-residue hormone; also called wild-type sCT(22–32); salmon calcitonin fragment 22–32; source: synthetic peptide (Genscript, HPLC-purified)) [sCT(22–32)] | 5.59 -log10(M) |
| YPRTNTGSGT[Hyp]-NH2 (N-terminus assumed; SMILES C[C@@H](O)[C@H](NC(=O)[C@H](CC(N)=O)NC(=O)[C@@H](NC(=O)[C@H](CCCNC(=N)N)NC(=O)[C@@H]1CCCN1C(=O)[C@@H](N)Cc1ccc(O)cc1)[C@@H](C)O)C(=O)NCC(=O)N[C@@H](CO)C(=O)NCC(=O)N[C@H](C(=O)N1C[C@H](O)C[C@H]1C(N)=O)[C@@H](C)O, salmon calcitonin (sCT), residues 22-32, with P32HYP; numbers count on: the mature 32-residue hormone; Residue 32 is hydroxyproline, not plain proline; source: synthetic peptide (Genscript, HPLC-purified)) [sCT(22–32) P32HYP] | 6.05 -log10(M) |
| YPRTDTGPGTP-NH2 (salmon calcitonin (sCT), residues 22-32, with N26D and S29P; numbers count on: the mature 32-residue hormone; source: synthetic peptide (Genscript, HPLC-purified)) [sCT(22–32) N26D/S29P] | 6.42 -log10(M) |

Fill blank: measured pKI of the binder YPRTDTGPGT[Hyp]-NH2 (salmon calcitonin (sCT), residues 22-32, with N26D, S29P and P32HYP; numbers count on: the mature 32-residue hormone; Residue 32 is hydroxyproline, not plain proline; also called the mutated sCT(22–32); sCT(22–32) with the combined mutations (N26D, S29P, and P32HYP); source: synthetic peptide (Genscript, HPLC-purified)) [sCT(22–32) N26D/S29P/P32HYP] is ____.
6.91 -log10(M)
